Numbers sourced from patent US20250197409A1.

- EXPERIMENTAL TARGET: androgen receptor (Homo sapiens, UniProt P10275, T878A)
- Construct: host or cells: LNCaP.FGC
- Sequence (P10275 whole entry T878A): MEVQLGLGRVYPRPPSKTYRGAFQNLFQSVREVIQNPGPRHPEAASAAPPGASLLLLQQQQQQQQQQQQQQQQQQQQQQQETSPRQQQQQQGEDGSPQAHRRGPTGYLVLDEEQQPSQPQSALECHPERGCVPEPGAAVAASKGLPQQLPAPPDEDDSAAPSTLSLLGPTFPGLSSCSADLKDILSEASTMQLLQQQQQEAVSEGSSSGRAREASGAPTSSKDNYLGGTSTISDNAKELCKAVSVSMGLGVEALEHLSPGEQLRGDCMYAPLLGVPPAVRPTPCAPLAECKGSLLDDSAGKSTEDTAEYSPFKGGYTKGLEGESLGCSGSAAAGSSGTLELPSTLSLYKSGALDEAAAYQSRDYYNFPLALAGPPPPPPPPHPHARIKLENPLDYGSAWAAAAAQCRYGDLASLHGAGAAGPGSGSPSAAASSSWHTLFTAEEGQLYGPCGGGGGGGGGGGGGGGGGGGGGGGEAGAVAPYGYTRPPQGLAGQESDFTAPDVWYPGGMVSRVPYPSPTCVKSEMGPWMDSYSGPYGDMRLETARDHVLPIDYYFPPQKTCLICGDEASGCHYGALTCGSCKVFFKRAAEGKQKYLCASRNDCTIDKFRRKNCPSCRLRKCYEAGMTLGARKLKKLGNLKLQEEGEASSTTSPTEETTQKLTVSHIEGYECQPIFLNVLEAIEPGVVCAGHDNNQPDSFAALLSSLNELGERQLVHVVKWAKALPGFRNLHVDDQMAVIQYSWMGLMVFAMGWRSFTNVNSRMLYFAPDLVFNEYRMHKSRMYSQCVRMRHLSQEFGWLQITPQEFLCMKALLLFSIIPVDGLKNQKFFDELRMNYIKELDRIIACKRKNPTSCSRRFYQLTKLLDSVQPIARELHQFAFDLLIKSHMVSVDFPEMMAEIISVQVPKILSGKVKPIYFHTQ
- Sequence (Q96SW2 whole entry partner): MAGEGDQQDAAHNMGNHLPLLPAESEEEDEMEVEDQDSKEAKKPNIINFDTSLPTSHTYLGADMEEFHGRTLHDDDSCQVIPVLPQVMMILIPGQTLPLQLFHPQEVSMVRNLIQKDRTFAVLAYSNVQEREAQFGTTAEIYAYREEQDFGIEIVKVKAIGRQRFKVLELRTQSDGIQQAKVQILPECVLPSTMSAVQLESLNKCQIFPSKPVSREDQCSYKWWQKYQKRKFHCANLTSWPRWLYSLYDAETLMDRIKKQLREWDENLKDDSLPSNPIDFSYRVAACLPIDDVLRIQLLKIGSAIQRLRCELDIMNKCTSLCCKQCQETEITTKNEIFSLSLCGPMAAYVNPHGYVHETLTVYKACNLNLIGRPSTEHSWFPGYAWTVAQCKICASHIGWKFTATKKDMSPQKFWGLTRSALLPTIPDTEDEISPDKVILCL
- EXPERIMENT SUMMARY: Androgen receptor degradation assay using Western blot analysis
- Type: cell-based
- RUN CONDITIONS: read-out: AR DC50 (concentration needed for 50% AR degradation); LNCaP.FGC cells, serial 10x dilutions from 100 nM
Reported DC50 values are given for each entry in this list.

[
  {
    "COMPOUND": "CCn1c2c(c3ccc(OCCCN4CC=C(c5ccc(C(=O)N[C@H]6CC[C@H](N(C)c7ccc(C#N)c(Cl)c7)CC6)nn5)CC4)cc31)C(=O)N(C1CCC(=O)NC1=O)C2=O (stereo partly shown)",
    "OBSERVED MEASUREMENT": "10 to 25 nM"
  },
  {
    "COMPOUND": "CCn1c2c(c3ccc(OC(C)CCN4CCC(c5ccc(C(=O)N[C@H]6CC[C@H](Oc7ccc(C#N)c(Cl)c7)CC6)nn5)CC4)cc31)C(=O)N(C1CCC(=O)NC1=O)C2=O (stereo partly shown)",
    "OBSERVED MEASUREMENT": "< 10 nM"
  },
  {
    "COMPOUND": "CCn1c2c(c3ccc(OCC(=O)N4CCC5(CC4)CN(c4ccc(C(=O)N[C@H]6CC[C@H](Oc7ccc(C#N)c(Cl)c7)CC6)nn4)C5)cc31)C(=O)N(C1CCC(=O)N(CO)C1=O)C2=O (stereo partly shown)",
    "OBSERVED MEASUREMENT": "> 100 nM"
  },
  {
    "COMPOUND": "CCn1c2c(c3ccc(OCCCN4CCCN(c5ccc(C(=O)N[C@H]6CC[C@H](Oc7ccc(C#N)c(Cl)c7)CC6)nn5)CC4)cc31)C(=O)N(C1CCC(=O)NC1=O)C2=O (stereo partly shown)",
    "OBSERVED MEASUREMENT": "10 to 25 nM"
  }
]

For the compound shown here, CCn1c2c(c3ccc(OCCOCCN4CCN(c5ccc(C(=O)N[C@H]6CC[C@H](Oc7ccc(C#N)c(Cl)c7)CC6)nn5)CC4)cc31)C(=O)N(C1CCC(=O)NC1=O)C2=O (stereo partly shown) [Compound 113] , give the reported DC50.
10 to 25 nM

For the compound shown here, CCn1c2c(c3ccc(OCCN4CCC5(C4)CN(c4ccc(C(=O)N[C@H]6CC[C@H](Oc7ccc(C#N)c(Cl)c7)CC6)nn4)C5)cc31)C(=O)N(C1CCC(=O)NC1=O)C2=O (stereo partly shown) , give the reported DC50.
10 to 25 nM

For the compound shown here, CCn1c2c(c3ccc(OCCOC4CCC5(CC4)CN(c4ccc(C(=O)N[C@H]6CC[C@H](N(C)c7ccc(C#N)c(Cl)c7)CC6)nn4)C5)cc31)C(=O)N(C1CCC(=O)NC1=O)C2=O (stereo partly shown) , give the reported DC50.
25 to 100 nM

For the compound shown here, CCn1c2c(c3ccc(OCCN4CCN(c5ccc(C(=O)N[C@H]6CC[C@H](Oc7ccc(C#N)c(Cl)c7)CC6)nn5)[C@H](C)C4)cc31)C(=O)N(C1CCC(=O)NC1=O)C2=O (stereo partly shown) , give the reported DC50.
25 to 100 nM

For the compound shown here, CCn1c2c(c3ccc(OC4CCN(CC5CCN(c6ccc(C(=O)N[C@H]7C(C)(C)[C@H](Oc8ccc(C#N)c(Cl)c8)C7(C)C)cc6)CC5)CC4)cc31)C(=O)N(C1CCC(=O)NC1=O)C2=O (stereo partly shown) , give the reported DC50.
> 100 nM

For the compound shown here, CCn1c2c(c3ccc(OCCCOC4CC5(CCN(c6ccc(C(=O)N[C@H]7CC[C@H](Oc8ccc(C#N)c(Cl)c8)CC7)nn6)CC5)C4)cc31)C(=O)N(C1CCC(=O)NC1=O)C2=O (stereo partly shown) , give the reported DC50.
25 to 100 nM

###

- EXPERIMENTAL TARGET: androgen receptor (Homo sapiens, UniProt P10275, T878A)
- Construct: host or cells: LNCaP.FGC
- EXPERIMENT SUMMARY: Androgen receptor degradation assay using Western blot analysis
- Assay type: cell-based
- RUN CONDITIONS: LNCaP.FGC cells, serial 10x dilutions from 100 nM; read-out: AR DC50 (concentration needed for 50% AR degradation)
QUANTITY MEASURED: DC50

Example results:
[
  {
    "COMPOUND": "Cn1c2c(c3ccc(OCCN4CCN(c5ccc(C(=O)N[C@H]6C(C)(C)[C@H](Oc7ccc(C#N)c(Cl)c7)C6(C)C)nc5)CC4)cc31)C(=O)N(C1CCC(=O)NC1=O)C2=O (some centres unmarked) [Compound 9]",
    "OBSERVED MEASUREMENT": "> 100 nM"
  },
  {
    "COMPOUND": "Cn1c2c(c3ccc(OCCCCOC4CCN(c5ccc(C(=O)N[C@H]6CC[C@H](Oc7ccc(C#N)c(Cl)c7)CC6)nn5)CC4)cc31)C(=O)N(C1CCC(=O)NC1=O)C2=O (some centres unmarked) [Compound 187]",
    "OBSERVED MEASUREMENT": "25 to 100 nM"
  },
  {
    "COMPOUND": "Cn1c2c(c3ccc(OC4CCN(CC5CCN(c6ccc(C(=O)N[C@H]7CC[C@@H](Oc8ccc(C#N)c(Cl)c8)CC7)nn6)CC5)CC4)cc31)C(=O)N(C1CCC(=O)NC1=O)C2=O (some centres unmarked) [Compound 216]",
    "OBSERVED MEASUREMENT": "< 10 nM"
  },
  {
    "COMPOUND": "CC(COc1ccc2c3c(n(C)c2c1)C(=O)N(C1CCC(=O)NC1=O)C3=O)CN1CC=C(c2ccc(C(=O)N[C@H]3CC[C@H](Oc4ccc(C#N)c(Cl)c4)CC3)nn2)CC1 (some centres unmarked) [Compound 200]",
    "OBSERVED MEASUREMENT": "10 to 25 nM"
  }
]

For the compound shown here, Cn1c2c(c3ccc(OCCCN4CCN(c5ccc(C(=O)N[C@H]6C(C)(C)[C@H](Oc7ccc(C#N)c(Cl)c7)C6(C)C)nn5)CC4)cc31)C(=O)N(C1CCC(=O)NC1=O)C2=O (some centres unmarked) [Compound 40] , give the reported DC50.
> 100 nM

For the compound shown here, Cn1c2c(c3ccc(OCCN4CCC(c5ccc(C(=O)N[C@H]6CC[C@H](Oc7ccc(C#N)c(Cl)c7)CC6)nn5)CC4)cc31)C(=O)N(C1CCC(=O)NC1=O)C2=O (some centres unmarked) [Compound 208] , give the reported DC50.
10 to 25 nM

For the compound shown here, Cn1c2c(c3ccc(OCCN4CCN(c5ccc(C(=O)N[C@H]6C(C)(C)[C@H](Oc7ccc(C#N)c(Cl)c7)C6(C)C)cc5)CC4)cc31)C(=O)N(C1CCC(=O)NC1=O)C2=O (some centres unmarked) [Compound 1] , give the reported DC50.
10 to 25 nM

For the compound shown here, Cn1c2c(c3ccc(OCCCN4CCN(c5ccc(C(=O)N[C@H]6C(C)(C)[C@H](Oc7ccc(C#N)c(Cl)c7)C6(C)C)cc5)CC4)cc31)C(=O)N(C1CCC(=O)NC1=O)C2=O (some centres unmarked) [Compound 12] , give the reported DC50.
25 to 100 nM

For the compound shown here, Cn1c2c(c3ccc(OCCCN4CCC5(CC4)CN(c4ccc(C(=O)N[C@H]6CC[C@H](Oc7ccc(C#N)c(Cl)c7)CC6)nn4)C5)cc31)C(=O)N(C1CCC(=O)NC1=O)C2=O (some centres unmarked) [Compound 92] , give the reported DC50.
25 to 100 nM

For the compound shown here, Cn1c2c(c3ccc(OCCCN4CC=C(c5ccc(C(=O)N[C@H]6CC[C@H](Oc7ccc(C#N)c(Cl)c7)CC6)nn5)CC4)cc31)C(=O)N(C1CCC(=O)NC1=O)C2=O (some centres unmarked) [Compound 196] , give the reported DC50.
< 10 nM

For the compound shown here, Cn1c2c(c3ccc(OCCN4CC=C(c5ccc(C(=O)N[C@H]6CC[C@H](Oc7ccc(C#N)c(Cl)c7)CC6)nn5)CC4)cc31)C(=O)N(C1CCC(=O)NC1=O)C2=O (some centres unmarked) [Compound 197] , give the reported DC50.
10 to 25 nM

###

- EXPERIMENTAL TARGET: androgen receptor (Homo sapiens, UniProt P10275, T878A)
- Construct: host or cells: LNCaP.FGC
- EXPERIMENT SUMMARY: Androgen receptor degradation assay using Western blot analysis
- Assay type: cell-based
- RUN CONDITIONS: 24 h, read-out: Androgen Receptor Remaining (%), LNCaP.FGC cells, 100 nM, 24 hr, normalized to GAPDH, untreated cells = 100%
- Description: Cells not treated with any of the above-mentioned compounds are used as a negative control. The internal loading control GAPDH was detected using a mouse monoclonal antibody (1:5000) (GTX627408, GeneTex International Corp., HsinChu City, Taiwan R.O.C.) and a goat anti-mouse HRP-conjugated secondary antibody (1:5000 dilution) (C04001, Croyez Bioscience Co., Ltd., Taipei City, Taiwan R.O.C.). […]
Sorting guide: entries reporting remaining activity at 0.1 µM beneath 40% go in the y pile, the rest go in the n pile.

Some solved cases for reference:
[
  {
    "MOLECULE": "CCn1c2c(c3ccc(OCCCN4CCN(c5cnc(C(=O)N[C@H]6CC[C@H](Oc7ccc(C#N)c(Cl)c7)CC6)cn5)CC4)cc31)C(=O)N(C1CCC(=O)NC1=O)C2=O (stereo partly shown)",
    "EXPERIMENTAL TARGET": "androgen receptor (Homo sapiens, UniProt P10275, T878A)",
    "CLASS NAME": "n"
  },
  {
    "MOLECULE": "CCn1c2c(c3ccc(OCCCN4CC5(CCN(c6ccc(C(=O)N[C@H]7CC[C@H](Oc8ccc(C#N)c(Cl)c8)CC7)nn6)CC5)C4)cc31)C(=O)N(C1CCC(=O)N(CO)C1=O)C2=O (stereo partly shown)",
    "EXPERIMENTAL TARGET": "androgen receptor (Homo sapiens, UniProt P10275, T878A)",
    "CLASS NAME": "y"
  },
  {
    "MOLECULE": "CCn1c2c(c3ccc(OCCOC4CC5(CCN(c6ccc(C(=O)N[C@H]7CC[C@H](Oc8ccc(C#N)c(Cl)c8)CC7)nn6)C5)C4)cc31)C(=O)N(C1CCC(=O)NC1=O)C2=O (stereo partly shown)",
    "EXPERIMENTAL TARGET": "androgen receptor (Homo sapiens, UniProt P10275, T878A)",
    "CLASS NAME": "y"
  },
  {
    "MOLECULE": "N#Cc1ccc(O[C@H]2CC[C@H](NC(=O)c3ccc(N4CC5(CCN(CCOc6ccc7c8c(n(CC(F)F)c7c6)C(=O)N(C6CCC(=O)NC6=O)C8=O)CC5)C4)nn3)CC2)cc1Cl (stereo partly shown)",
    "EXPERIMENTAL TARGET": "androgen receptor (Homo sapiens, UniProt P10275, T878A)",
    "CLASS NAME": "n"
  }
]

Is remaining activity at 0.1 µM strictly under 40% for the entry CN(c1ccc(C#N)c(Cl)c1)[C@H]1CC[C@H](NC(=O)c2ccc(N3CC4(CCN(CCOc5ccc6c7c(n(CC(F)F)c6c5)C(=O)N(C5CCC(=O)NC5=O)C7=O)CC4)C3)nn2)CC1 (stereo partly shown) ?
y
